Each item that follows carries a reported Kd.
- Target Under Test: T1, EsCas13d, nuclease-dead (Eubacterium siraeum, UniProt B0MS50, R295A;H300A;R849A;H854A)
- T1 sequence: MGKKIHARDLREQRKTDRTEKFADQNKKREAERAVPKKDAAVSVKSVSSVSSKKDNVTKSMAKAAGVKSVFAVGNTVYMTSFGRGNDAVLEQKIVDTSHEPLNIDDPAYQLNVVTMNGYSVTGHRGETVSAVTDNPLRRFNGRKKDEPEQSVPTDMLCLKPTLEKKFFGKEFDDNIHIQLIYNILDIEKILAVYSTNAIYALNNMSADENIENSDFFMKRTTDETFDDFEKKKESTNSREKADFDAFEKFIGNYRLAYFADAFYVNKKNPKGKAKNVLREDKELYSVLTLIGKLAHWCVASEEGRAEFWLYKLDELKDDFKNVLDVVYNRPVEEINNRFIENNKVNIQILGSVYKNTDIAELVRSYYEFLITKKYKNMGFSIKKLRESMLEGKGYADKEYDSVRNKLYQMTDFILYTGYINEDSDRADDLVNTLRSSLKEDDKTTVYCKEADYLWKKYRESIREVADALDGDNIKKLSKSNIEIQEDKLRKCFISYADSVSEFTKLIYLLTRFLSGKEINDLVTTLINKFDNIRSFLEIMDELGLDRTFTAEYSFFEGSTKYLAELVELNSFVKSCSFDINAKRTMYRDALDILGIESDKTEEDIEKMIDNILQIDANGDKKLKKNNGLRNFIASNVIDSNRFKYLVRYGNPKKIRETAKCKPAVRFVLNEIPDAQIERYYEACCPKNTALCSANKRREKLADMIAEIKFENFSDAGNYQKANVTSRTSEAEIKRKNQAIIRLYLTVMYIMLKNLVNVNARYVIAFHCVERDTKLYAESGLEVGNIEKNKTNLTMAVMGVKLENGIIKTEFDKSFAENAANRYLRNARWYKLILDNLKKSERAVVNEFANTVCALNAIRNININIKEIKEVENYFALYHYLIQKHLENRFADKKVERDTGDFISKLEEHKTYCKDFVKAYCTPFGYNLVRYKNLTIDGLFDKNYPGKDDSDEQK
- Experiment Notes: crRNA (strand 1, pre-loaded); Mg2+; 40 mM Tris-HCl pH 7.5, 150 mM NaCl, 6 mM MgCl2, 1 mM DTT, 0.1% Tween-20, 0.2 mg/ml BSA; 25 C; 10 min per concentration, then washed
- Particulars: tags: His6-TwinStrep-SUMO cleaved; N-terminal SNAP kept (SNAP-Surface 488); label: 3' end held by stalled T7 RNA polymerase
Write the answer as a number in µM, unit excluded.

Sample answers from the record:
Request: # query: Kd of entry target 1 MT 5'PFS GUA 3'PFS GCA (mixed) RNA 1: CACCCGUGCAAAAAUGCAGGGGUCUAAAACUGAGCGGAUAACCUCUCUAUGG RNA 2: GGGAAUGGAUCCACAUCUACGAAUUCGUACCAUAGAGAGGUUAUCCGCUCAGCAAGAUCGGAAGAGCACACGU
Result: 0.0138

Request: # query: Kd of entry target 1 U11A,C22A (mixed) RNA 1: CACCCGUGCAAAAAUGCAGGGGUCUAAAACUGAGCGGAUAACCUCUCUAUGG RNA 2: GGGAAUGGAUCCACAUCUACGAAUUCGUAACAUAGAGAGGAUAUCCGCUCACCGAGAUCGGAAGAGCACACGU
Result: 0.047

Request: # query: Kd of entry target 1 U10C,G13A (mixed) RNA 1: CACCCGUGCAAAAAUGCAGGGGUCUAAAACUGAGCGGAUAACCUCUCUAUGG RNA 2: GGGAAUGGAUCCACAUCUACGAAUUCGUACCAUAGAGAAGUCAUCCGCUCACCGAGAUCGGAAGAGCACACGU
Result: 0.0136

Request: # query: Kd of entry target 2 MT 5'PFS UCA 3'PFS AGC (mixed) RNA 1: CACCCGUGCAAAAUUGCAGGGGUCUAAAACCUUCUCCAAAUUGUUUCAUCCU RNA 2: GGGAAUGGAUCCACAUCUACGAAUUCUCAAGGAUGAAACAAUUUGGAGAAGAGCAGAUCGGAAGAGCACACGU
Result: 0.00268

Request: # query: Kd of entry target 3 G3U,U8C (mixed) RNA 1: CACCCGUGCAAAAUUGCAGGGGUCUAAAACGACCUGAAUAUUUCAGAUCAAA RNA 2: GGGAAUGGAUCCACAUCUACGAAUUCGUUUUUGAUCUGAAAUACUCAGUUCUGCAGAUCGGAAGAGCACACGU
Result: 0.103

Further cases:
Request: # query: Kd of entry target 1 del4,del14 (mixed) RNA 1: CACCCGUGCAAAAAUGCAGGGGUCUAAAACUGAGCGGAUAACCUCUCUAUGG RNA 2: GGGAAUGGAUCCACAUCUACGAAUUCGUACCAUAGAGGGUUAUCCGUCACCGAGAUCGGAAGAGCACACGU
Result: 0.084

Request: # query: Kd of entry target 1 insC 3' of 5 (mixed) RNA 1: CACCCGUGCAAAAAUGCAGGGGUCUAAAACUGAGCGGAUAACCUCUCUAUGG RNA 2: GGGAAUGGAUCCACAUCUACGAAUUCGUACCAUAGAGAGGUUAUCCGCCUCACCGAGAUCGGAAGAGCACACGU
Result: 0.0096

Request: # query: Kd of entry target 3 C6U,C16U (mixed) RNA 1: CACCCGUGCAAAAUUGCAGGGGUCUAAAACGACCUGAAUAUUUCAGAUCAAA RNA 2: GGGAAUGGAUCCACAUCUACGAAUUCGUUUUUGAUUUGAAAUAUUUAGGUCUGCAGAUCGGAAGAGCACACGU
Result: 0.0845

Request: # query: Kd of entry target 1 C6A,U11C (mixed) RNA 1: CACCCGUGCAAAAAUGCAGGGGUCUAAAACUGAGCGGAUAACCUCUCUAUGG RNA 2: GGGAAUGGAUCCACAUCUACGAAUUCGUACCAUAGAGAGGCUAUCAGCUCACCGAGAUCGGAAGAGCACACGU
Result: 0.0086

Request: # query: Kd of entry target 3 A9G,U22A (mixed) RNA 1: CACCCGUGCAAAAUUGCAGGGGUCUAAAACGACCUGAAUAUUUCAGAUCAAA RNA 2: GGGAAUGGAUCCACAUCUACGAAUUCGUUAUUGAUCUGAAAUGUUCAGGUCUGCAGAUCGGAAGAGCACACGU
Result: 0.0276

Request: # query: Kd of entry target 1 C2A,A9C (mixed) RNA 1: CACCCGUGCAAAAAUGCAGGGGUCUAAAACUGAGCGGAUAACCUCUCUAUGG RNA 2: GGGAAUGGAUCCACAUCUACGAAUUCGUACCAUAGAGAGGUUCUCCGCUAACCGAGAUCGGAAGAGCACACGU
Result: 0.0122

Request: # query: Kd of entry target 1 U3C,G12A (mixed) RNA 1: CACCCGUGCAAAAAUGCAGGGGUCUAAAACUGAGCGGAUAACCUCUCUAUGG RNA 2: GGGAAUGGAUCCACAUCUACGAAUUCGUACCAUAGAGAGAUUAUCCGCCCACCGAGAUCGGAAGAGCACACGU
Result: 0.0111

Request: # query: Kd of entry target 2 MT 5'PFS UCU 3'PFS CUU (mixed) RNA 1: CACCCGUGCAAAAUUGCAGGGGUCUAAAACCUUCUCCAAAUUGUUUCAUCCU RNA 2: GGGAAUGGAUCCACAUCUACGAAUUCUCUAGGAUGAAACAAUUUGGAGAAGCUUAGAUCGGAAGAGCACACGU
Result: 0.0141
